Protocol: solubility to propylene glycol monomethyl ether acetate (PM) and cyclohexanone (AN)
Run conditions: cyclohexanone
Assign Solubility to Solvent AN to each entry below.

Please review the entries below; each comes with its answer.
| Molecule | Result |
| --- | --- |
| COc1ccc(/C=C(\C)C(=O)N2CCCCC2)c([N+](=O)[O-])c1 | >50 mass % |
| CCN(CC)C(=O)/C=C/c1ccc(OC)cc1 | >50 mass % |
| COc1ccc(C=CC(=O)n2ccnc2)c(O)c1 [compound 9, reference compound] | >50 mass % |
| CCN(CC)C(=O)/C(C)=C/c1ccc(OC)c([N+](=O)[O-])c1 | >50 mass % |
| CCN(CC)C(=O)/C=C/c1ccc(OC)c([N+](=O)[O-])c1 | >50 mass % |
| COc1ccc(/C=C/C(=O)Nc2ccccc2)cc1 | >50 mass % |
| COc1ccc(C=CC(=O)N2CCCCC2)cc1 | >50 mass % |
| CCO[Si](C)(CCCN)OCC [Comparative Compound 6, reference compound] | >50 mass % |

Consider the additional molecule presented here.
Ask: I am curious: what Solubility to Solvent AN value has been reported for `CCN(CC)C(=O)C(C)=Cc1ccc(OC)cc1` ?
Result: >50 mass %
